Just for reference, paper PMC2756588 is where these values come from.

molecular target: Bem1-2, P29366; test: SPOT array; conditions: median of control spots 4347
Sequence (P29366 139-227): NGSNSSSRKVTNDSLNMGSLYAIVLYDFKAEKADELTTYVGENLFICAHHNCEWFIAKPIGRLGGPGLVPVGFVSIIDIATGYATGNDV
experimentalEndpoint: SPOT intensity

A. RLPAPPPPPRRGPAP
B. YSRKKLPVVLSKMTL
## Input I need your help: which of the pair A , B has higher SPOT intensity? Could you answer with the label of the item you picked?
## Output A

1. NMLKKKPLKKPLKRF
2. RKNRAPPQRPRFNRE
3. SSSSSPPPLPTRRDH
4. PAPPPPPRASRPTPN
## Input Sort the binders on SPOT intensity; start with the lowest figure. Please list the labels according to the requested order.
## Output 4, 3, 1, 2
